Assay Explanation: Selectivity index, ratio of CC50 for HEK293T cells assessed as reduction in cell viability measured after 24 hrs by MTT assay to MIC for Salmonella enterica ATCC 14028 assessed as bacterial growth inhibition by CLSI protocol based serial microdilution method
Assay type: toxicity
Run Conditions: human, read-out: Selectivity Index
Property: selectivity ratio at 24 h
API doc: respond with a numeric literal and nothing else, no unit.

[ask] Any idea what its selectivity ratio at 24 h is? The compound is `CCCCCCCCCCCC[N+]12CC[N+](Cc3ccccc3C[N+]34CC[N+](CCCCCCCCCCCC)(CC3)CC4)(CC1)CC2`
[reply] 3

[ask] Any idea what its selectivity ratio at 24 h is? The compound is `CCCCCCCCCCCC[N+]12CC[N+](Cc3cccc(C[N+]45CC[N+](CCCCCCCCCCCC)(CC4)CC5)c3)(CC1)CC2`
[reply] 10

[ask] Any idea what its selectivity ratio at 24 h is? The compound is `CCCCCCCCCCCC[N+]12CC[N+](CCC[N+]34CC[N+](CCCCCCCCCCCC)(CC3)CC4)(CC1)CC2`
[reply] 4

[ask] Any idea what its selectivity ratio at 24 h is? The compound is `CCCCCCCCCCCC[N+]12CC[N+](CC#CC[N+]34CC[N+](CCCCCCCCCCCC)(CC3)CC4)(CC1)CC2`
[reply] 4

[ask] Any idea what its selectivity ratio at 24 h is? The compound is `CCCCCCCCCCCC[N+]12CC[N+](CCCC[N+]34CC[N+](CCCCCCCCCCCC)(CC3)CC4)(CC1)CC2`
[reply] 3
